Consider the following molecules and their measured activity at 10 µM readings.
test system: SF-295; assay: NCI-60 one-dose SRB screening; format: cell-based; settings: Homo sapiens, SF-295, CNS Cancer, 10 µM one dose, 48 h, read-out: growth percentage
# output: bare number, implied unit %

Exercise: Form field: reported activity at 10 µM of Cc1nc(Nc2ccc(OCc3c(-c4ccccc4)no[n+]3[O-])cc2)c2c(C)nn(-c3ccccc3)c2n1
Solution: 108

Continuing:
Exercise: Consider the molecule shown here: Cc1nc(Nc2ccc(OCc3c(-c4ccccc4)no[n+]3[O-])cc2)c2cnn(-c3ccccc3)c2n1 What is its recorded activity at 10 µM?
Solution: 97.1

Exercise: What value of measured activity at 10 µM is listed for Cc1nn(-c2ccc(Br)cc2)c2nc(C(F)(F)F)nc(Nc3ccc(NCc4c(-c5ccccc5)no[n+]4[O-])cc3)c12 [12c] ?
Solution: 57.5

Exercise: Give its activity at 10 µM value. Item: Cc1nn(-c2ccccc2)c2nc(CCl)[nH]c(=O)c12 [13b]
Solution: 109

Exercise: GET /values?readout=activity at 10 µM&item= [O-][n+]1onc(-c2ccccc2)c1CNc1ccc(Nc2nc(C(F)(F)F)nc3c2cnn3-c2ccc(Br)cc2)cc1 [12b]
Solution: 54.5

Exercise: What does the record list as activity at 10 µM for Cc1nc(Nc2ccc(OCc3c(-c4ccccc4)no[n+]3[O-])cc2)c2cnn(-c3ccc(Br)cc3)c2n1 ?
Solution: 102
